Test system: Escherichia coli TOP10;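 also: peptides expressed intracellularly from a pBAD plasmid library in pooled LB shake-flask culture, induced with 0.3% L-arabinose, DNA abundance read by NGS, three biological replicates, DESeq2 with apeglm shrinkage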
Test: shrunken log2 fold change of peptide-encoding DNA abundance (4.5 h post-induction vs induction); higher = less antimicrobial activity (less host growth inhibition)
Settings: time post-induction: 4.5 h; library: site-saturation at positions 5, 18, 19, 20
testReadout: shrunken log2 fold change
Would you mind answering with just the numeric figure?

Please indicate shrunken log2 fold change recorded for "RRIRCRPPRLPRPRPRPILYPRP" -0.716

Please give measured shrunken log2 fold change of the following entry: "RRIRMRPPRLPRPRPRPTHNPRP" 0.275

Please report shrunken log2 fold change for the following sequence: "RRIRDRPPRLPRPRPRPYHRPRP" 0.0231

Using known records, supply shrunken log2 fold change for "RRIRDRPPRLPRPRPRPEGQPRP" 1.15

Read off the recorded shrunken log2 fold change for "RRIRGRPPRLPRPRPRPRDYPRP" 0.258

Identify measured shrunken log2 fold change corresponding to "RRIRCRPPRLPRPRPRPHHLPRP" -0.808

Give shrunken log2 fold change for "RRIRQRPPRLPRPRPRPMICPRP" 0.013

Dear colleague, please send me the reported shrunken log2 fold change for "RRIRQRPPRLPRPRPRPRYTPRP" when you can. -0.126

Quick one: give measured shrunken log2 fold change for "RRIRRRPPRLPRPRPRPYERPRP" -0.18

State its shrunken log2 fold change for this sequence: "RRIRYRPPRLPRPRPRPTKYPRP" -0.836

Look up shrunken log2 fold change of "RRIRTRPPRLPRPRPRPYQWPRP" and report it. -0.216

// fetch shrunken log2 fold change given entry "RRIRPRPPRLPRPRPRPELHPRP" 0.0832

Give shrunken log2 fold change for the following sequence: "RRIRQRPPRLPRPRPRPCYTPRP" -0.149

Entry "RRIRTRPPRLPRPRPRPSKEPRP" needs its shrunken log2 fold change filled in; supply it. -0.598

Could you please provide reported shrunken log2 fold change for "RRIRNRPPRLPRPRPRPWGAPRP" ? Thanks! 0.0894

Output shrunken log2 fold change of "RRIRGRPPRLPRPRPRPTPSPRP" 0.954

# return recorded shrunken log2 fold change for input "RRIRQRPPRLPRPRPRPDHRPRP" 0.083

Please give measured shrunken log2 fold change of the following entry: "RRIRKRPPRLPRPRPRPPLLPRP" 0.524

Consider the sequence "RRIRKRPPRLPRPRPRPRQSPRP" . State its measured shrunken log2 fold change. 0.0892

Output measured shrunken log2 fold change for this item: "RRIRPRPPRLPRPRPRPRVEPRP" 0.625

# return recorded shrunken log2 fold change for entry "RRIRRRPPRLPRPRPRPSGYPRP" -0.201

Give a short answer stating reported shrunken log2 fold change for "RRIRHRPPRLPRPRPRPTVEPRP" . -0.0265

Read the entry "RRIRNRPPRLPRPRPRPWSCPRP" and write its reported shrunken log2 fold change. -0.42

Give shrunken log2 fold change for "RRIRIRPPRLPRPRPRPWPNPRP" -0.0754

// fetch shrunken log2 fold change given entry "RRIRQRPPRLPRPRPRPNVNPRP" -0.543

Specify measured shrunken log2 fold change for "RRIRERPPRLPRPRPRPAVKPRP" . -0.0221

Please list shrunken log2 fold change recorded for the sequence "RRIRPRPPRLPRPRPRPYTNPRP" -0.709

Dear colleague, please send me the reported shrunken log2 fold change for "RRIRKRPPRLPRPRPRPCYCPRP" when you can. -0.0227

Provide measured shrunken log2 fold change value, entry: "RRIRTRPPRLPRPRPRPYHEPRP" -0.0196

For the sequence "RRIRERPPRLPRPRPRPKAAPRP" , report shrunken log2 fold change. 0.0382

Look up and report measured shrunken log2 fold change for this entry: "RRIRVRPPRLPRPRPRPKRHPRP" 0.0244

Write down shrunken log2 fold change measured for item "RRIRKRPPRLPRPRPRPTAPPRP" 1.05

Indicate the recorded shrunken log2 fold change value for this sequence: "RRIRLRPPRLPRPRPRPGLDPRP" -0.0233
